Data provenance: patent EP1222194B1

Tested on: E. faecium VanA (Van^R)
ASSAY_PROTOCOL: Broth microdilution MIC (NCCLS)
Assay type: cell-based
COND: Enterococcus faecium, Mueller-Hinton Broth, 24 h at 35 °C
READOUT: MIC (µg/mL)
Answer format: numeric, µg/mL implied, no suffix.

Recorded MIC of NCCSCc1ncccc1SC1=C(C(=O)O)N2C(=O)[C@@H](NC(=O)/C(=N\O)c3nsc(N)n3)[C@H]2SC1 , please.
2

Recorded MIC of NCCSCc1ncccc1SC1=C(C(=O)O)N2C(=O)[C@@H](NC(=O)/C(=N\O)c3nc(N)sc3Cl)[C@H]2SC1 , please.
1

Recorded MIC of N=C(N)NCCSCc1ncccc1SC1=C(C(=O)O)N2C(=O)[C@@H](NC(=O)/C(=N\O)c3nc(N)sc3Cl)[C@H]2SC1 , please.
0.5

Recorded MIC of NCCSCc1ccncc1SC1=C(C(=O)O)N2C(=O)[C@@H](NC(=O)/C(=N\O)c3nc(N)sc3Cl)[C@H]2SC1 , please.
2

Recorded MIC of N=C(N)NCCSCc1ncccc1SC1=C(C(=O)O)N2C(=O)[C@@H](NC(=O)/C(=N\O)c3nsc(N)n3)[C@H]2SC1 , please.
1

Recorded MIC of NCCSCc1ccncc1SC1=C(C(=O)O)N2C(=O)[C@@H](NC(=O)/C(=N\O)c3nsc(N)n3)[C@H]2SC1 , please.
8

Recorded MIC of C[C@@H](O)[C@H]1C(=O)N2C(C(=O)O)=C(SCCN=CN)C[C@H]12 [Imipenem, reference compound] , please.
4
